SYSTEM_UNDER_TEST: Cytochrome P450 3A4 (Homo sapiens)
Sequence (P08684 whole entry): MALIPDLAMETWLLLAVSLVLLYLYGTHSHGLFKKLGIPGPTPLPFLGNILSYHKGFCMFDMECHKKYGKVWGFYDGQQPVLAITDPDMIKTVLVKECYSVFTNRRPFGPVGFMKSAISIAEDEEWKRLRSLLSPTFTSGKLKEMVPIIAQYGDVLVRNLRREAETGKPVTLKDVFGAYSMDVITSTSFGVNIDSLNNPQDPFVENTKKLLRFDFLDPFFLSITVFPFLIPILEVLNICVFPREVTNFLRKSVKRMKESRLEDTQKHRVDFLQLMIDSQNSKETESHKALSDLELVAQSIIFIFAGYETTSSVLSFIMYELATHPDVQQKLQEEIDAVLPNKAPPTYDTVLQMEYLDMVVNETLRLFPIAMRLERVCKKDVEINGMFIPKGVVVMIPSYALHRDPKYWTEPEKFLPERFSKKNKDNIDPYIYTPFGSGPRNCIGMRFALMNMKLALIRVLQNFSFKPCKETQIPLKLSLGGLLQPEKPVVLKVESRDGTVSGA
EXPERIMENT_NOTES: Inhibition of recombinant human CYP3A4 expressed in Escherichia coli using BFC as substrate by fluorescence assay

SMILES_REPR | IC50
Cc1cc(-c2ccc(C(=O)[C@@H]3CCCC[C@H]3C(=O)Nc3cnn4c3C(=O)NCC4)cc2)[nH]n1 | > 20 µM
Cc1cc(-c2ccc(C(=O)[C@@H]3CCCC[C@H]3C(=O)Nc3cnn(C)c3S(N)(=O)=O)cc2)[nH]n1 | > 20 µM
Cc1cc(-c2ccc(C(=O)[C@@H]3CCCC[C@H]3C(=O)Nc3cnn(C)c3C(=O)NOC(C)(C)C)cc2)[nH]n1 | > 20 µM
